Readings of Hb for the listed compounds
species on record: Rattus norvegicus; test: Open TG-GATES - Regimen: Single; format: toxicity, organism-based, Sprague-Dawley; design: regimen Single, gender Male, age 6 weeks; details: in vivo, po, 0 mg/kg, 24 h, tissue Blood, route gavage, dose level Control

>  <compound>
Cc1ccc2cc3c(ccc4ccccc43)c3c2c1CC3

>  <Hb (g/dL)>
12.6

$$$$
>  <compound>
Cc1cccc(C)c1OCC(C)N (centres undefined)

>  <Hb (g/dL)>
13

$$$$
>  <compound>
C[C@H]1C(=O)O[C@@H]2CCN3CC=C(COC(=O)[C@](C)(O)[C@]1(C)O)[C@H]23

>  <Hb (g/dL)>
12.9

$$$$
>  <compound>
CCOC(=O)C(C)(C)Oc1ccc(Cl)cc1 [CLOFIBRATE]

>  <Hb (g/dL)>
13.7

$$$$
>  <compound>
O=[N+]([O-])c1ccc(O)c([N+](=O)[O-])c1

>  <Hb (g/dL)>
12.7

$$$$
>  <compound>
Cn1cc[nH]c1=S

>  <Hb (g/dL)>
13.7

$$$$
>  <compound>
C[C@H]1O[C@H](O[C@H]2[C@H](O)[C@@H](O)[C@@H](O[C@H]3[C@H](O)[C@@H](O)C(O)O[C@@H]3CO)O[C@@H]2CO)[C@H](O)[C@@H](O)[C@@H]1N[C@H]1C=C(CO)[C@@H](O)[C@H](O)[C@H]1O (some centres undefined)

>  <Hb (g/dL)>
13.2

$$$$
>  <compound>
C=C(C)[C@H]1Cc2c(ccc3c2O[C@@H]2COc4cc(OC)c(OC)cc4[C@@H]2C3=O)O1

>  <Hb (g/dL)>
12.6

$$$$
>  <compound>
OCCN1CCN(CCCN2c3ccccc3Sc3ccc(C(F)(F)F)cc32)CC1

>  <Hb (g/dL)>
12.9

$$$$

###

organism: Rattus norvegicus; experiment: Open TG-GATES - Regimen: Daily Repeat; format: toxicity, organism-based, Sprague-Dawley; parameters: regimen Daily Repeat, gender Male, age 6 weeks; conditions: in vivo, po, 0 mg/kg, […], tissue Plasma, route gavage, dose level Control, time 28 day

>  <compound>
OCCN1CCN(CCCN2c3ccccc3Sc3ccc(C(F)(F)F)cc32)CC1 [FLUPHENAZINE]

>  <DBIL>
0.01 mg/dL

$$$$
>  <compound>
Cn1cc[nH]c1=S [METHIMAZOLE]

>  <DBIL>
0.002 mg/dL

$$$$
>  <compound>
CCOC(=O)C(C)(C)Oc1ccc(Cl)cc1 [CLOFIBRATE]

>  <DBIL>
0.08 mg/dL

$$$$
>  <compound>
O=C1CN(/N=C/c2ccc([N+](=O)[O-])o2)C(=O)N1 [NITROFURANTOIN]

>  <DBIL>
0.1 mg/dL

$$$$
>  <compound>
O=[N+]([O-])c1ccc(O)c([N+](=O)[O-])c1 [2,4-DINITROPHENOL]

>  <DBIL>
0.016 mg/dL

$$$$
>  <compound>
Cc1cccc(C)c1OCC(C)N (centres undefined) [MEXILETINE]

>  <DBIL>
0 mg/dL

$$$$
>  <compound>
C[C@H]1O[C@H](O[C@H]2[C@H](O)[C@@H](O)[C@@H](O[C@H]3[C@H](O)[C@@H](O)C(O)O[C@@H]3CO)O[C@@H]2CO)[C@H](O)[C@@H](O)[C@@H]1N[C@H]1C=C(CO)[C@@H](O)[C@H](O)[C@H]1O (some centres undefined) [ACARBOSE]

>  <DBIL>
0.014 mg/dL

$$$$
>  <compound>
C=C(C)[C@H]1Cc2c(ccc3c2O[C@@H]2COc4cc(OC)c(OC)cc4[C@@H]2C3=O)O1 [ROTENONE]

>  <DBIL>
0.01 mg/dL

$$$$
>  <compound>
C[C@H]1C(=O)O[C@@H]2CCN3CC=C(COC(=O)[C@](C)(O)[C@]1(C)O)[C@H]23 [MONOCROTALINE]

>  <DBIL>
0 mg/dL

$$$$

###

Readings of GLC for the listed molecules
species: Rattus norvegicus; assay: Open TG-GATES - Regimen: Daily Repeat; type: toxicity, organism-based, Sprague-Dawley; set-up: regimen Daily Repeat, gender Male, age 6 weeks; details: in vivo, po, 0 mg/kg, 72 h, tissue Plasma, route gavage, dose level Control, time 3 day

>  <molecule>
C=C(C)[C@H]1Cc2c(ccc3c2O[C@@H]2COc4cc(OC)c(OC)cc4[C@@H]2C3=O)O1

>  <GLC [mg/dL]>
187.2

$$$$
>  <molecule>
C[C@H]1C(=O)O[C@@H]2CCN3CC=C(COC(=O)[C@](C)(O)[C@]1(C)O)[C@H]23

>  <GLC [mg/dL]>
191.4

$$$$
>  <molecule>
O=C1CN(/N=C/c2ccc([N+](=O)[O-])o2)C(=O)N1

>  <GLC [mg/dL]>
233.2

$$$$
>  <molecule>
CCOC(=O)C(C)(C)Oc1ccc(Cl)cc1 [CLOFIBRATE]

>  <GLC [mg/dL]>
194.2

$$$$
>  <molecule>
OCCN1CCN(CCCN2c3ccccc3Sc3ccc(C(F)(F)F)cc32)CC1

>  <GLC [mg/dL]>
185

$$$$

###

organism: Rattus norvegicus; assay: Open TG-GATES - Regimen: Daily Repeat; type: toxicity, organism-based, Sprague-Dawley; parameters: regimen Daily Repeat, gender Male, age 6 weeks; settings: in vivo, po, 0 mg/kg, […], tissue Kidney, route gavage, dose level Control, time 14 day

>  <compound>
Cc1cccc(C)c1OCC(C)N (stereo not drawn) [MEXILETINE]

>  <KIDNEY_TOTAL [g]>
2.5

$$$$
>  <compound>
CCOC(=O)C(C)(C)Oc1ccc(Cl)cc1 [CLOFIBRATE]

>  <KIDNEY_TOTAL [g]>
2.6

$$$$
>  <compound>
OCCN1CCN(CCCN2c3ccccc3Sc3ccc(C(F)(F)F)cc32)CC1 [FLUPHENAZINE]

>  <KIDNEY_TOTAL [g]>
2.4

$$$$

###

organism: Rattus norvegicus; experiment: Open TG-GATES - Regimen: Daily Repeat; assay type: toxicity, organism-based, Sprague-Dawley; set-up: regimen Daily Repeat, gender Male, age 6 weeks; conditions: in vivo, po, 0 mg/kg, […], tissue Blood, route gavage, dose level Control, time 7 day
measured-metric: Mono (%)

>  <compound>
C[C@H]1O[C@H](O[C@H]2[C@H](O)[C@@H](O)[C@@H](O[C@H]3[C@H](O)[C@@H](O)C(O)O[C@@H]3CO)O[C@@H]2CO)[C@H](O)[C@@H](O)[C@@H]1N[C@H]1C=C(CO)[C@@H](O)[C@H](O)[C@H]1O (some centres undefined)

>  <measured-metric>
Mono

>  <unit-symbol>
%

>  <quantitative-result>
2.6

$$$$
>  <compound>
CCOC(=O)C(C)(C)Oc1ccc(Cl)cc1 [CLOFIBRATE]

>  <measured-metric>
Mono

>  <unit-symbol>
%

>  <quantitative-result>
2.6

$$$$
>  <compound>
OCCN1CCN(CCCN2c3ccccc3Sc3ccc(C(F)(F)F)cc32)CC1

>  <measured-metric>
Mono

>  <unit-symbol>
%

>  <quantitative-result>
4

$$$$
>  <compound>
O=C1CN(/N=C/c2ccc([N+](=O)[O-])o2)C(=O)N1

>  <measured-metric>
Mono

>  <unit-symbol>
%

>  <quantitative-result>
2.6

$$$$

###

species: Rattus norvegicus; assay: Open TG-GATES - Regimen: Daily Repeat; assay type: toxicity, organism-based, Sprague-Dawley; set-up: regimen Daily Repeat, gender Male, age 6 weeks; conditions: in vivo, po, 0 mg/kg, […], tissue Blood, route gavage, dose level Control, time 7 day

>  <compound>
O=C1CN(/N=C/c2ccc([N+](=O)[O-])o2)C(=O)N1

>  <unit-symbol>
%

>  <Neu>
14.6

$$$$
>  <compound>
C=C(C)[C@H]1Cc2c(ccc3c2O[C@@H]2COc4cc(OC)c(OC)cc4[C@@H]2C3=O)O1

>  <unit-symbol>
%

>  <Neu>
13.2

$$$$
>  <compound>
CCOC(=O)C(C)(C)Oc1ccc(Cl)cc1 [CLOFIBRATE]

>  <unit-symbol>
%

>  <Neu>
14.6

$$$$
>  <compound>
C[C@H]1O[C@H](O[C@H]2[C@H](O)[C@@H](O)[C@@H](O[C@H]3[C@H](O)[C@@H](O)C(O)O[C@@H]3CO)O[C@@H]2CO)[C@H](O)[C@@H](O)[C@@H]1N[C@H]1C=C(CO)[C@@H](O)[C@H](O)[C@H]1O (some centres undefined)

>  <unit-symbol>
%

>  <Neu>
18.6

$$$$
>  <compound>
Cc1cccc(C)c1OCC(C)N (centres undefined)

>  <unit-symbol>
%

>  <Neu>
17.4

$$$$
>  <compound>
C[C@H]1C(=O)O[C@@H]2CCN3CC=C(COC(=O)[C@](C)(O)[C@]1(C)O)[C@H]23

>  <unit-symbol>
%

>  <Neu>
15.2

$$$$
>  <compound>
O=[N+]([O-])c1ccc(O)c([N+](=O)[O-])c1

>  <unit-symbol>
%

>  <Neu>
16.8

$$$$
>  <compound>
OCCN1CCN(CCCN2c3ccccc3Sc3ccc(C(F)(F)F)cc32)CC1

>  <unit-symbol>
%

>  <Neu>
15.2

$$$$
>  <compound>
Cn1cc[nH]c1=S

>  <unit-symbol>
%

>  <Neu>
15.6

$$$$
